Molecular target: CYP2D6 (Homo sapiens, UniProt P10635)
Sequence (P10635 whole entry): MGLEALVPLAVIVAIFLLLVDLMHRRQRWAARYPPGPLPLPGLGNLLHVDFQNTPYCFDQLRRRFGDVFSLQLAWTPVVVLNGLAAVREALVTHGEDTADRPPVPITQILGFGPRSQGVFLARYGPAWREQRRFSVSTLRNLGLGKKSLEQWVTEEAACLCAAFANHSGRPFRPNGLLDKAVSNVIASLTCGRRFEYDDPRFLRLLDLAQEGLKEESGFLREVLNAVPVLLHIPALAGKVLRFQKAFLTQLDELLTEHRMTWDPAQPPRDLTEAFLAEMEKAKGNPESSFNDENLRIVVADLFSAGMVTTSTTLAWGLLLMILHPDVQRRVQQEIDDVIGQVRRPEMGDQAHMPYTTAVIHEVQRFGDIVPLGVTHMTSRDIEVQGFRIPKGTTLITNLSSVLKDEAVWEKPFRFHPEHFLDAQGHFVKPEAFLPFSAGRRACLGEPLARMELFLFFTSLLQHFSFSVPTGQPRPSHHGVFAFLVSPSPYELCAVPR
Experiment: Inhibition of CYP2D6 (unknown origin) at 10 uM by fluorimetric assay relative to control
Assay type: ADME
measurement.label: inhibition at 10 µM (%)
Answers are plain numbers, in %.

{"entry.smiles": "CSc1nc(-c2ccc(F)cc2)c(-c2ccnc(Nc3ccccc3)c2)[nH]1", "assayed.system": "CYP2D6 (Homo sapiens, UniProt P10635)", "measurement.label": "inhibition at 10 µM", "result.value": 74.5}

Asked: Please give measured inhibition at 10 µM of the following entry: CSc1nc(-c2ccc(F)cc2)c(-c2ccnc(NC(C)=O)c2)n1C
Given back: 45

* * *

Test: Cmax in human at 0.5 mg, po administered as single dose
Assay type: ADME, organism-based
Design: dose 0.5 mg, route oral
Settings: in vivo
measurement.label: Cmax (nM)
Answers are plain numbers, in nM.

Asked: Answer with reported Cmax of O=C(Nc1c(Cl)cncc1Cl)c1ccc(OC(F)F)c(OCC2CC2)c1
Given back: 13.1

* * *

Experiment: Half life in male Sprague-Dawley rat at 30 mg/kg, po by LC-MS/MS analysis
Assay type: ADME, organism-based
Settings: in vivo
measurement.label: half-life
Respond with the figure and its unit, in that order.

Asked: Please indicate half-life recorded for CC(=O)Nc1cc(-c2c(-c3ccc(F)cc3)nc([S+](C)[O-])n2C)ccn1 (stereo unspecified)
Given back: 1.8 h

* * *

Assay: Cmax in fasting human at 10 mg, po administered as single dose
Format: ADME, organism-based
Parameters: dose 10 mg, route oral
Conditions: in vivo
Provide the reported Cmax of each item.
Answers are plain numbers, in nM.

{"molecule": "CC(=O)Nc1cc(-c2c(-c3ccc(F)cc3)nc([S+](C)[O-])n2C)ccn1 (configuration not stated)", "units.of.measure": "nM", "Cmax": 140}

Turning now to a further record.
Asked: Tell me its Cmax given Cn1c([S+](C)[O-])nc(-c2ccc(F)cc2)c1-c1ccnc(N)c1 (configuration not stated) as the entry.
Given back: 150

* * *

Assay: Drug uptake in LPS-stimulated female Lewis rat serum at 10 mg/kg, po pretreated for 5 hrs followed by LPS addition measured after 1.5 hrs post dose
Assay type: ADME, organism-based
Conditions: read-out: Drug uptake
measurement.label: concentration at 1.5 h (ng/mL)
Give bare numbers, in ng/mL.

Asked: Tell me concentration at 1.5 h reported for CC(=O)Nc1cc(-c2c(-c3ccc(F)cc3)nc([S+](C)[O-])n2C)ccn1 (stereo unspecified)
Given back: 871

* * *

Test: Drug uptake in LPS-stimulated female Lewis rat serum at 10 mg/kg, po pretreated for 3 hrs followed by LPS addition measured after 1.5 hrs post dose
Assay type: ADME, organism-based
Details: read-out: Drug uptake
measurement.label: concentration at 1.5 h (ng/mL)
Answers are plain numbers, in ng/mL.

Asked: Tell me its concentration at 1.5 h given CC(=O)Nc1cc(-c2c(-c3ccc(F)cc3)nc([S+](C)[O-])n2C)ccn1 (stereo unspecified) as the entry.
Given back: 526

* * *

Test: Fraction unbound in human plasma at 5 uM by equilibrium dialysis relative to control
Type: ADME, cell-free
measurement.label: fraction unbound at 5 µM
One number for each entry.

Asked: Query fraction unbound at 5 µM for CSc1nc(-c2ccc(F)cc2)c(-c2ccnc(NC(C)=O)c2)n1C
Given back: 0.037

* * *

Assay: Cmax in cynomolgus monkey at 20 mg/kg, po measured on day 1 and 27 post dose by LC-MS/MS analysis
Format: ADME, organism-based, Macaca fascicularis
Set-up: dose 20 mg/kg, route oral
Details: in vivo
measurement.label: Cmax (µM)
Numbers only, in µM.

Asked: State, in one line, measured Cmax of CC(=O)Nc1cc(-c2c(-c3ccc(F)cc3)nc([S+](C)[O-])n2C)ccn1 (stereo unspecified)
Given back: 8.4

* * *

Experiment: Tmax in fed human at 10 mg, po administered as single dose
Type: ADME, organism-based
Conditions: in vivo
Exercise: for every item that follows, state its recorded Tmax.
Numbers only, in h.

{"molecule": "CC(=O)Nc1cc(-c2c(-c3ccc(F)cc3)nc([S+](C)[O-])n2C)ccn1 (configuration not stated)", "Tmax, h": 3.7}

Below: the item to evaluate.
Asked: Answer with reported Tmax of Cn1c([S+](C)[O-])nc(-c2ccc(F)cc2)c1-c1ccnc(N)c1 (configuration not stated)
Given back: 6.7

* * *

For each of the compounds below, state its half-life.
Test: Half life in fed human at 10 mg, po administered as single dose
Type: ADME, organism-based
Conditions: in vivo
Give bare numbers, in h.

{"compound": "Cn1c([S+](C)[O-])nc(-c2ccc(F)cc2)c1-c1ccnc(N)c1 (configuration not stated)", "units.of.measure": "h", "half-life": 10.7}

Turning to the following compound.
Asked: Give recorded half-life. CC(=O)Nc1cc(-c2c(-c3ccc(F)cc3)nc([S+](C)[O-])n2C)ccn1 (configuration not stated)
Given back: 2.8

* * *

Test: AUC (0 to infinity) in mongrel dog at 30 mg/kg, po by LC-MS/MS analysis
Type: ADME, organism-based, Canis lupus familiaris
Design: dose 30 mg/kg, time infinity, route oral
Settings: in vivo
measurement.label: AUC(0-inf) (µM·h)
Answers are plain numbers, in µM·h.

Asked: Kindly indicate its recorded AUC(0-inf). Item: CC(=O)Nc1cc(-c2c(-c3ccc(F)cc3)nc([S+](C)[O-])n2C)ccn1 (stereo unspecified)
Given back: 96.8

* * *

Experiment: Cmax in mongrel dog at 30 mg/kg, po by LC-MS/MS analysis
Assay type: ADME, organism-based, Canis lupus familiaris
Parameters: dose 30 mg/kg, route oral
Settings: in vivo
measurement.label: Cmax (µM)
Answers are plain numbers, in µM.

Asked: Return Cmax (reported value) for this compound: CC(=O)Nc1cc(-c2c(-c3ccc(F)cc3)nc([S+](C)[O-])n2C)ccn1 (stereo unspecified)
Given back: 14.3

* * *

So I've got a bunch of molecules here, and I need their AUC(0-inf) values.
Assay: AUC (0 to infinity) in human at 30 mg, po administered as single dose
Assay type: ADME, organism-based
Parameters: dose 30 mg, time infinity, route oral
Conditions: in vivo
One number for each entry, in µM·h.

Answer for every listed entry: what is its AUC(0-inf)? The entries follow.
1. Cn1c([S+](C)[O-])nc(-c2ccc(F)cc2)c1-c1ccnc(N)c1 (configuration not stated)
2. CC(=O)Nc1cc(-c2c(-c3ccc(F)cc3)nc([S+](C)[O-])n2C)ccn1 (configuration not stated)

Given back:
1: 8.55; 2: 3.05

* * *

Biological target: Mitogen-activated protein kinase 14 (Homo sapiens)
Sequence (Q16539 whole entry): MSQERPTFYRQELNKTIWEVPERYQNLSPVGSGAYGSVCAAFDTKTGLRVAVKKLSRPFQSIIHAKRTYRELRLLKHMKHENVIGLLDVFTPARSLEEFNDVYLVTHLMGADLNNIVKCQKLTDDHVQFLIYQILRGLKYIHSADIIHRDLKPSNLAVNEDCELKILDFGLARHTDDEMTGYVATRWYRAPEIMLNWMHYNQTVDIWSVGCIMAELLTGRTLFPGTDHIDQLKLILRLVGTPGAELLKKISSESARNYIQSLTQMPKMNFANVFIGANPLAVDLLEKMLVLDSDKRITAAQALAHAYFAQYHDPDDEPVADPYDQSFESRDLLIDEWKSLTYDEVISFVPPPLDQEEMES
Test: Inhibition of P38 MAPKalpha in LPS-stimulated human whole blood assessed as decrease in TNFalpha level
Kindly supply the reported pIC50 values for the records listed here.
Numbers only, as −log10 of the molar value.

For each of the molecules below, state pIC50.
1. CC(=O)Nc1cc(-c2c(-c3ccc(F)cc3)nc([S+](C)[O-])n2C)ccn1 (configuration not stated)
2. Cn1c([S+](C)[O-])nc(-c2ccc(F)cc2)c1-c1ccnc(N)c1 (configuration not stated)

Given back:
[6.15, 6.15]

* * *

Experiment: Tmax in mongrel dog at 30 mg/kg, po by LC-MS/MS analysis
Assay type: ADME, organism-based, Canis lupus familiaris
Details: in vivo
measurement.label: Tmax
Report field: quantity (unit follows the number).

Asked: Identify the reported Tmax for the following entry. CC(=O)Nc1cc(-c2c(-c3ccc(F)cc3)nc([S+](C)[O-])n2C)ccn1 (stereo unspecified)
Given back: 2 h

* * *

Assay: AUC (0 to t) in Beagle dog at 40 mg/kg, po by LC-MS/MS analysis
Assay type: ADME, organism-based, Canis lupus familiaris
Conditions: in vivo
measurement.label: AUC(0-t)

Asked: Output AUC(0-t) of CC(=O)Nc1cc(-c2c(-c3ccc(F)cc3)nc([S+](C)[O-])n2C)ccn1 (stereo unspecified)
Given back: 93.4 µM·h

* * *

Consider the following compounds; for each one, report its IC50.
Target: 3',5'-cyclic-AMP phosphodiesterase 4B (Homo sapiens, UniProt Q07343)
Sequence (Q07343 whole entry): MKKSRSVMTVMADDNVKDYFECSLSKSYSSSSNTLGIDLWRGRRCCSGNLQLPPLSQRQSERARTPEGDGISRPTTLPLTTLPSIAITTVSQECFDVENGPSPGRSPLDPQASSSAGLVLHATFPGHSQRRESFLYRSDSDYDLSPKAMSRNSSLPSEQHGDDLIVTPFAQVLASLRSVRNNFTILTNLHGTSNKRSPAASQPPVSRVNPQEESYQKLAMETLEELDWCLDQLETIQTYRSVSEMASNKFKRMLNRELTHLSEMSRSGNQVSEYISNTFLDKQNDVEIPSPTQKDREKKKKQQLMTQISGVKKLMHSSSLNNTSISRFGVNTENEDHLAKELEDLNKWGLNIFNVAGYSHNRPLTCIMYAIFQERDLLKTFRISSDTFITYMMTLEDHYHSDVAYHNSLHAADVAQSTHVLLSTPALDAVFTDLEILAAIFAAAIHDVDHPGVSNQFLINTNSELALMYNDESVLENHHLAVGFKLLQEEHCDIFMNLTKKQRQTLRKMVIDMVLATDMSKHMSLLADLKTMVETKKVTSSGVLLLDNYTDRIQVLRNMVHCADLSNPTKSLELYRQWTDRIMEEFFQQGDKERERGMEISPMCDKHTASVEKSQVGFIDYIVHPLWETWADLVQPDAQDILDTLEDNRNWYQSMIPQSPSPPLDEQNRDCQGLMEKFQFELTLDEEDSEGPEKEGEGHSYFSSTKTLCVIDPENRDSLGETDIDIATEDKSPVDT
One number for each entry, in nM.

{"compound": "Cn1c([S+](C)[O-])nc(-c2ccc(F)cc2)c1-c1ccnc(N)c1 (configuration not stated)", "units.of.measure": "nM", "IC50": 3500}

Moving on to another compound below.
Asked: Return value of IC50 for input CC(=O)Nc1cc(-c2c(-c3ccc(F)cc3)nc([S+](C)[O-])n2C)ccn1 (configuration not stated) , no commentary.
Given back: 1900

* * *

What inhibition at 10 µM was measured for each of the following?
Target: UniProt:P33261
Sequence (P33261 whole entry): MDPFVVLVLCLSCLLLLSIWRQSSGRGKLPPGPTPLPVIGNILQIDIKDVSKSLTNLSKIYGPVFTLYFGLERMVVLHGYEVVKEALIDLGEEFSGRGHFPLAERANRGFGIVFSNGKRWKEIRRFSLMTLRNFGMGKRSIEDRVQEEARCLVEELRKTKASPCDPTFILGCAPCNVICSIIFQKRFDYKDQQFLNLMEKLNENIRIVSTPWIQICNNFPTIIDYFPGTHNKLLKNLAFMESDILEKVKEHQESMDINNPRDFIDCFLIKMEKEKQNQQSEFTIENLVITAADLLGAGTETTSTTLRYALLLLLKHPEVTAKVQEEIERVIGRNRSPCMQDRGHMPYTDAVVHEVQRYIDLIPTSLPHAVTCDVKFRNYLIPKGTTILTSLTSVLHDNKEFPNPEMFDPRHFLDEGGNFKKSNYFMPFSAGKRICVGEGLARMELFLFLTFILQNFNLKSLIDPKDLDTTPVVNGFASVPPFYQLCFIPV
Assay: Inhibition of CYP2C19 (unknown origin) at 10 uM by fluorimetric assay relative to control
Assay type: ADME
Answers are plain numbers, in %.

{"entry.smiles": "CSc1nc(-c2ccc(F)cc2)c(-c2ccnc(NC(C)=O)c2)n1C", "inhibition at 10 µM [%]": 4}

Turning now to a further compound:
Asked: Return the recorded inhibition at 10 µM value; entry: CSc1nc(-c2ccc(F)cc2)c(-c2ccnc(Nc3ccccc3)c2)[nH]1
Given back: 90

# credit: ChEMBL document CHEMBL4028848
